# Method Summary: Tanguay_ZF_120hpf_ActivityScore_legacy: (Legacy) Oregon State University Tanguay Lab 120 Hour Post-fertilization zebrafish Assay Score for Activity (AID 2283742)
The source made the active and inactive calls. The calls were made as follows: active = hit-call score of the fitted dose curve at least 0.9, where 1 is the maximum; inconclusive = response in the unintended direction; inactive = score below 0.9.
Respond using exactly one of the listed classes: active, inactive

q: Per the assay record, what outcome was assigned to O=C(NC(=O)c1c(F)cccc1F)Nc1cc(Cl)c(OC(F)(F)C(F)F)c(Cl)c1 ?
a: inactive

q: For NS(=O)(=O)C(F)(F)C(F)(F)C(F)(F)C(F)(F)C(F)(F)C(F)(F)C(F)(F)C(F)(F)F , which call appears in the assay record?
a: active

q: // return assay outcome for CCCCCCCCCC[N+](C)(C)CCCCCCCCCC
a: active

q: Fill in: this test's call for CN(C)CCO is ___
a: inactive

q: Test call for this molecule, please: O=S(=O)(O)C(F)(F)C(F)(F)C(F)(F)C(F)(F)F
a: inactive

q: Fill in: this test's call for CCC(C)(c1ccc(O)cc1)c1ccc(O)cc1 is ___
a: active

q: Please let me know the test result on file for Cc1ccc(O)c(C)c1 .
a: inactive

q: Identify the outcome logged in this assay for the molecule shown: Oc1ccc(Cl)cc1Cl
a: inactive

q: # fetch the recorded call for Oc1ccc(C(c2ccc(O)cc2)(C(F)(F)F)C(F)(F)F)cc1 here
a: active

q: Entry CCCCCCCCCc1ccc(O)cc1 : call = ?
a: inactive

q: So what was the verdict on O=C(NC(=O)c1cc(F)c(F)cc1Cl)Nc1cc(F)ccc1N1CCC(C(=O)O)CC1 in this test?
a: inactive

q: Hi team, can someone confirm the assay call for C[C@]12CCC(=O)C=C1CC[C@@H]1[C@@H]2CC[C@@]2(C)[C@H]1CC[C@]2(C)O ?
a: inactive

q: Could you check what this test reported for O=NN(c1ccccc1)c1ccccc1 ?
a: inactive

q: How did this test come out for CCCCCCOC(=O)c1ccccc1C(=O)OCCCCCC ?
a: inactive

q: Could you check what this test reported for Clc1ccc(C(c2ccccc2Cl)C(Cl)(Cl)Cl)cc1 (stereo unspecified) ?
a: inactive

q: Answer briefly: the call reported for Clc1ccc(C(Cl)(Cl)Cl)cc1 in this assay.
a: inactive

q: Would you mind telling me which call this test gave ClC1=C(Cl)[C@]2(Cl)[C@@H]3[C@@H](Cl)[C@H]4O[C@H]4[C@@H]3C1(Cl)C2(Cl)Cl ?
a: inactive

q: Recorded call for ClC1=C(Cl)[C@]2(Cl)[C@@H]3[C@@H]4C[C@@H]([C@H]5O[C@@H]45)[C@@H]3[C@@]1(Cl)C2(Cl)Cl ?
a: inactive

q: Which outcome was assigned to CCSC(=O)N(CC)C1CCCCC1 in this test?
a: inactive

q: Fill in: this test's call for CCOCCOC(C)=O is ___
a: inactive

q: Give the logged outcome of this assay for the following molecule: O=C(N[C@H]1CN2CCC1CC2)c1cc2ccoc2cn1
a: inactive

q: Recorded test call requested for C1CC2OC2CC1C1CO1 (stereo unspecified)
a: inactive

q: State the result this test recorded for CO/C=C(/C(=O)OC)c1ccccc1COc1cccc(C(F)(F)F)n1 .
a: active

q: Per the assay record, what outcome was assigned to CC1=C2C[C@H]3[C@@H](CC=C4C[C@@H](O)CC[C@@]43C)[C@@H]2CC[C@]12O[C@@H]1C[C@H](C)CN[C@H]1[C@H]2C ?
a: active

q: Which outcome was assigned to Cc1cccc(C)c1N in this test?
a: inactive

q: Returns: the outcome recorded for CCCN(CCC)N=O in this assay.
a: inactive

---

# Target Desc: Bile acid receptor (Homo sapiens) (UniProt Q96RI1)
# Sequence (Q96RI1 whole entry, looked up): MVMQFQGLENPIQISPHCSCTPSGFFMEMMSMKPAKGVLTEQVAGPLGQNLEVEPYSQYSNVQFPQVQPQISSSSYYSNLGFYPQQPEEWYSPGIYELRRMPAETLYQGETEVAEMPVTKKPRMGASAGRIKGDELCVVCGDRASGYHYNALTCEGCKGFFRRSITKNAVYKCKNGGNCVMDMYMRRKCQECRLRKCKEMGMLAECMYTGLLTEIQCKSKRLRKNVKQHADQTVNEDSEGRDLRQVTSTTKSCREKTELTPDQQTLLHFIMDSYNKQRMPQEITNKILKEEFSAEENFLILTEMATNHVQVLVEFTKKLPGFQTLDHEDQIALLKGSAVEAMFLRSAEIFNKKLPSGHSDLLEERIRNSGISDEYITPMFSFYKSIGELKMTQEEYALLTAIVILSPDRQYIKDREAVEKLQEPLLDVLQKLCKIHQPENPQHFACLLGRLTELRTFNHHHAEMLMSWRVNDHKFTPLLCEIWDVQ
# Method Summary: OT_FXR_FXRSRC1_1440: Odyssey Thera (OT) 24-hour HEK293T Protein-Complementation Assay for Farnesoid X receptor/SRC-1 Co-activator (AID 2283384)
Records with an inconclusive call do not appear. The source made the active and inactive calls. How the source made its calls: active means hit-call score of the fitted dose curve at least 0.9, where 1 is the maximum; inconclusive means response in the unintended direction; inactive means score below 0.9.
Select the matching outcome among label 1 for active, label 0 for inactive

c1cc2ccc3cccc4ccc(c1)c2c34
label 0

q: Hi, do you know how CCC(C)c1cc([N+](=O)[O-])cc([N+](=O)[O-])c1O (stereo unspecified) came out in this test?
a: label 0

q: Please indicate how the test categorized CC1=C2C[C@H]3[C@@H](CC=C4C[C@@H](O)CC[C@@]43C)[C@@H]2CC[C@]12O[C@@H]1C[C@H](C)CN[C@H]1[C@H]2C .
a: label 0

q: What did this assay record as the result for CCSC(=O)N(CC)C1CCCCC1 ?
a: label 0

q: Returns: the outcome recorded for Cc1cc(O)ccc1Cl in this assay.
a: label 1

q: Called result for O=S(=O)(O)C(F)(F)C(F)(F)C(F)(F)C(F)(F)C(F)(F)C(F)(F)F
a: label 0

q: Write down the call the test reported for this molecule. Item: CCCCCCCCCC[N+](C)(C)CCCCCCCCCC
a: label 0

q: I would be grateful if you could indicate the recorded call for NS(=O)(=O)C(F)(F)C(F)(F)C(F)(F)C(F)(F)C(F)(F)C(F)(F)C(F)(F)C(F)(F)F .
a: label 1

---

# Method Summary: ATG_TGFb_CIS: Attagene CIS-FACTORIAL HepG2 Assay for human Transforming Growth Factor (TGF) (AID 2282967)
# Condition Details: HepG2 Attagene CIS TGFb reporter, mRNA transcription; actives raise or lower the signal
# Experimental: ATG_CIS is a cell-based, multiplexed-readout assay that uses HepG2, a human liver cell line, with measurements taken at 24 hours after chemical dosing in a 24-well plate.ATG_TGFb_CIS is one of 52 assay component(s) measured or calculated from the ATG_CIS assay. […] This assay endpoint, ATG_TGFb_CIS, was analyzed with bidirectional fitting relative to DMSO as the negative control and baseline of activity. […]
Active and inactive are the calls of the source. Rule for the calls: active = hit-call score of the fitted dose curve at least 0.9, where 1 is the maximum; inactive = score below 0.9.
Test Readout: outcome

Some entries whose results are on file:
Cc1ccccc1[N+](=O)[O-]
inactive
CCOP(=S)(OCC)SCSC(C)(C)C
inactive
CCC(=O)O[C@H]1CC[C@H]2[C@@H]3CCC4=CC(=O)CC[C@]4(C)[C@H]3CC[C@]12C
inactive
Cc1ccc(O)c(C)c1
inactive
Cc1cccc([N+](=O)[O-])c1
inactive
CCCCCCCCOC(=O)c1ccccc1C(=O)OCCCCCCCC
inactive
ClC1=C(Cl)[C@]2(Cl)[C@@H]3[C@H]4C[C@H]([C@@H]5O[C@H]45)[C@@H]3[C@@]1(Cl)C2(Cl)Cl
inactive
O=S(=O)(O)C(F)(F)C(F)(F)C(F)(F)C(F)(F)F
inactive

q: Please look up its outcome: CC(c1ccc(O)cc1)(c1ccc(O)cc1)c1ccc(O)cc1
a: inactive

q: Which outcome reading was recorded for the compound C=CC(N)=O ?
a: inactive

q: Any idea what its outcome is? The compound is Cc1cc(O)ccc1Cl
a: inactive

---

# Read-out: Matrix Metallopeptidase 1 (MMP1), MMP1 (gene 4312)
# Method Summary: BSK_MyoF_MMP1: BioMAP Diversity Plus: MyoF Assay for Matrix Metallopeptidase 1 (MMP1) Biomarker Activity (AID 2284268)
# Condition Details: primary human lung fibroblasts
Activity calls are given as the source filed them. The calls were made as follows: active = hit-call score of the fitted dose curve at least 0.9, where 1 is the maximum; inactive = score below 0.9.
Test Readout: AC50

Sc1ccccc1
inactive
NS(=O)(=O)C(F)(F)C(F)(F)C(F)(F)C(F)(F)C(F)(F)C(F)(F)C(F)(F)C(F)(F)F
inactive
O=S(=O)(O)C(F)(F)C(F)(F)C(F)(F)C(F)(F)C(F)(F)C(F)(F)F
inactive
Oc1c(Cl)c(Cl)c(Cl)c(Cl)c1Cl
11.5 µM (active)

---

# Method Summary: Tanguay_ZF_120hpf_AXIS_legacy: (Legacy) Oregon State University Tanguay Lab 120 Hour Post-fertilization zebrafish Assay for Body Axis Malformation (AID 2283635)
# Method: Tanguay_ZF_120hpf_legacy is a whole embryo, multiplexed endpoint assay using zebrafish larvae exposed for 120 hours post fertilization on a 96-well plate.Tanguay_ZF_120hpf_AXIS_legacy is one of one assay component(s) measured or calculated from the Tanguay_ZF_120hpf_legacy assay. […] This assay endpoint, Tanguay_ZF_120hpf_AXIS_legacy, was analyzed in the positive analysis fitting direction relative to DMSO as the negative control and baseline of activity. […]
Results filed as inconclusive are left out. The source made the active and inactive calls. Rule for the calls: active = hit-call score of the fitted dose curve at least 0.9, where 1 is the maximum; inconclusive = response in the unintended direction; inactive = score below 0.9.
Bench note: report the call from 1 = active, 0 = inactive

Solved entries (count: 8):
Cc1cc2c3c(c1)C(c1ccccc1)=N[C@@H](NC(=O)c1ccncc1)C(=O)N3CC2
0
Cc1cc(-c2ccc(N)c(C)c2)ccc1N
0
CCC(C)c1cc([N+](=O)[O-])cc([N+](=O)[O-])c1O (configuration not stated)
0
Cc1cc(O)ccc1Cl
0
CO/C=C(/C(=O)OC)c1ccccc1COc1cccc(C(F)(F)F)n1
1
C=CC(=O)NCNC(=O)C=C
0
CCSC(=O)N(CC)C1CCCCC1
0
CC(C)(O)C(=O)Nc1ccc([N+](=O)[O-])c(C(F)(F)F)c1
1

q: Recorded test outcome, item CCC(=O)O[C@H]1CC[C@H]2[C@@H]3CCC4=CC(=O)CC[C@]4(C)[C@H]3CC[C@]12C
a: 0

q: Please let me know the test result on file for CCC(C)(CC)c1cc(NC(=O)c2c(OC)cccc2OC)on1 .
a: 0

q: Call for entry C[C@]12CCC(=O)C=C1CC[C@@H]1[C@@H]2CC[C@]2(C)C(=O)CC[C@@H]12 :
a: 1

q: How was Nn1cnnc1 classified in this test?
a: 0

Values from PubChem BioAssay (EPA / NIEHS)
